Measured pKi by item
EXPERIMENTAL SYSTEM: BRD4 (BDI_K57-E168) (Homo sapiens, UniProt O60885)
TEST SUMMARY: TR-FRET bromodomain binding assay, BRD4 first bromodomain (BDI)
Please express pKi as -log10 of the molar concentration.

Prompt line: Could you share which pKi value was measured for CCS(=O)(=O)Nc1ccc(Oc2c(C)cc(C(C)(C)O)cc2C)c(-c2cn(C)c(=O)cc2O[C@H]2CC[C@H](NC(C)=O)CC2)c1 ?
Response line: 7.02

Prompt line: Name the reported pKi value associated with the compound COC(=O)N[C@H]1CC[C@H](Oc2cc(=O)n(C)cc2-c2cc(CS(C)(=O)=O)ccc2Oc2c(C)cc(F)cc2C)CC1
Response line: 6.04

Prompt line: # query: pKi of entry CCS(=O)(=O)c1ccc(Oc2c(C)cccc2C)c(-c2cn(C)c(=O)cc2O[C@H]2CC[C@H](NC(=O)C3CC3)CC2)c1
Response line: 6.11

Prompt line: # lookup: pKi of CCS(=O)(=O)c1ccc(Oc2c(C)cccc2C)c(-c2cn(C)c(=O)cc2O[C@H]2CC[C@H](NC(=O)OC(C)(C)C)CC2)c1
Response line: 5.89

Prompt line: Item under review: CCS(=O)(=O)c1ccc(Oc2c(C)cccc2C)c(-c2cn(C)c(=O)cc2O[C@H]2CC[C@H](NS(C)(=O)=O)CC2)c1 . Reported pKi?
Response line: 5.98

Prompt line: Look at this compound and give its reported pKi. CCS(=O)(=O)c1ccc(Oc2c(C)cccc2C)c(-c2cn(C)c(=O)cc2O[C@H]2CC[C@H](NC(C)=O)CC2)c1
Response line: 5.94

Others:
Prompt line: Field request: pKi | item: CCS(=O)(=O)c1ccc(Oc2c(C)cc(F)cc2C)c(-c2cn(C)c(=O)cc2O[C@H]2CC[C@H](N(C)C(C)=O)CC2)c1
Response line: 6.34

Prompt line: What pKi value was documented for this compound, CCS(=O)(=O)c1ccc(Oc2c(C)cccc2C)c(-c2cn(C)c(=O)cc2O[C@H]2CC[C@H](NC(=O)COC)CC2)c1 ?
Response line: 6.32

Prompt line: Look at this compound and give its reported pKi. CCS(=O)(=O)c1ccc(Oc2c(C)cccc2C)c(-c2cn(C)c(=O)cc2O[C@H]2CC[C@@H](NC(C)=O)CC2)c1
Response line: 5.55

Prompt line: Which pKi reading was recorded for the compound CCS(=O)(=O)Nc1ccc(Oc2c(C)cc(C(C)(C)O)cc2C)c(-c2cn(C)c(=O)cc2O[C@H]2CC[C@H](NC(=O)OC)CC2)c1 ?
Response line: 6.99

Prompt line: Reported pKi for CCS(=O)(=O)c1ccc(Oc2c(C)cc(F)cc2C)c(-c2cn(C)c(=O)cc2O[C@H]2CC[C@H](N3CCCC3=O)CC2)c1 : what is it?
Response line: 6.21

Prompt line: Dear colleague, I am looking for the recorded pKi of the following compound: CCS(=O)(=O)c1ccc(Oc2c(C)cccc2C)c(-c2cn(C)c(=O)cc2O[C@H]2CC[C@H](NC(=O)C3(C)COC3)CC2)c1
Response line: 6.52

Prompt line: I have this compound here, CCS(=O)(=O)c1ccc(Oc2c(C)cccc2C)c(-c2cn(C)c(=O)cc2O[C@H]2CC[C@H](NC(=O)C3CC(F)(F)C3)CC2)c1 , and I need its recorded pKi.
Response line: 6.34

====

EXPERIMENTAL SYSTEM: BRD4 (BDI_K57-E168) (Homo sapiens, UniProt O60885)
TEST SUMMARY: TR-FRET bromodomain binding assay, BRD4 first bromodomain (BDI)
In this section, each of the compounds is paired with its reported pKi.
API: returns pKi as number; meaning -log10 of concentration in mol/L.

The following compounds have reported results that may help.
Prompt line: Param readout = pKi; param system = BRD4 (BDI_K57-E168) (Homo sapiens, UniProt O60885); param query = CCS(=O)(=O)c1ccc(Oc2c(C)cccc2C)c(-c2cn(C)c(=O)cc2O[C@H]2CC[C@H](NC(=O)OC)CC2)c1 [Example 3] ; response: value
Response line: 5.98

Prompt line: Tell me reported pKi for CCC(=O)N[C@H]1CC[C@H](Oc2cc(=O)n(C)cc2-c2cc(S(=O)(=O)CC)ccc2Oc2c(C)cccc2C)CC1 [Example 7] , tested with BRD4 (BDI_K57-E168) (Homo sapiens, UniProt O60885).
Response line: 6.31

Prompt line: Enter reported pKi observed with BRD4 (BDI_K57-E168) (Homo sapiens, UniProt O60885) for CCS(=O)(=O)Nc1cnc(Oc2c(C)cc(F)cc2C)c(-c2cn(C)c(=O)cc2O[C@H]2CC[C@H](NC(=O)OC)CC2)c1 [Example 17]
Response line: 6.38

# evaluate next
Prompt line: Form entry - test system: BRD4 (BDI_K57-E168) (Homo sapiens, UniProt O60885); read-out: pKi; compound: CCS(=O)(=O)Nc1ccc(Oc2c(C)cc(F)cc2C)c(-c2cn(C)c(=O)cc2O[C@H]2CC[C@H](NC(=O)OC)CC2)c1 [Example 16]
Response line: 6.50

====

The entries below are paired with their reported pKi.
EXPERIMENTAL SYSTEM: BRD4 (BDI_K57-E168) (Homo sapiens, UniProt O60885)
TEST SUMMARY: TR-FRET bromodomain binding assay, BRD4 first bromodomain (BDI)
Please report pKi as the negative decimal logarithm of the molar concentration, giving only the number.

Prompt line: For BRD4 (BDI_K57-E168) (Homo sapiens, UniProt O60885), provide pKi of CCS(=O)(=O)c1ccc(Oc2c(C)cccc2C)c(-c2cn(C)c(=O)cc2O[C@H]2CC[C@H](NC(=O)C(C)(C)C)CC2)c1 [Example 8] please.
Response line: 6.20

Prompt line: I'm curious: which pKi was measured for CCS(=O)(=O)c1ccc(Oc2c(C)cccc2C)c(-c2cn(C)c(=O)cc2O[C@H]2CC[C@H](NC(=O)C(F)(F)F)CC2)c1 [Example 6] tested on BRD4 (BDI_K57-E168) (Homo sapiens, UniProt O60885)?
Response line: 6.08

Note: attention shifts to another entry.
Prompt line: Which measured pKi belongs to CCS(=O)(=O)c1ccc(Oc2c(C)cccc2C)c(-c2cn(C)c(=O)cc2O[C@H]2CC[C@H](NC(=O)C3(C)CC3)CC2)c1 [Example 10] , tested on BRD4 (BDI_K57-E168) (Homo sapiens, UniProt O60885)?
Response line: 6.28

Source of measurements: patent US20250145587A1
